Test Description: CR6086 pharmacokinetics in rats
Assay type: in vivo, rat
Reported Conditions: rat, plasma; oral, 30 mg/kg
Measured Attribute: Cmax (ng/mL)
Give bare numbers, in ng/mL.

q: # return recorded Cmax for input O=C([O-])c1ccc(C2(NC(=O)[C@H]3CC4(CCN3Cc3ccc(C(F)(F)F)cc3)CC4)CC2)cc1.[Na+] [CR6086]
a: 34500

---

Test Description: CR6086 pharmacokinetics in rats
Format: in vivo, rat
Reported Conditions: rat, plasma; oral, 30 mg/kg; median
Measured Attribute: Tmax (h)
Numbers only, in h.

q: Quick one: give measured Tmax for O=C([O-])c1ccc(C2(NC(=O)[C@H]3CC4(CCN3Cc3ccc(C(F)(F)F)cc3)CC4)CC2)cc1.[Na+] [CR6086]
a: 1
